Source of measurements: paper PMC10065799

# System: Fer kinase domain
# Experimental Details: pTyr-Var library bacterial peptide display kinase screen (enrichment scores);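 further: log2 fold change in enrichment of variant over reference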
# Type: biochemical, mouse
# Applied Conditions: sheet "Fer"; variant peptide relative to its reference peptide, pTyr-Var library screen enrichment

Primary Sequence: PKDSAYVTWEP [TTN_Y20731_S20726P]
Measurement Target: Fer kinase domain
Screen: 0.6125
//
Primary Sequence: KRAAIYNPVIF [RHO_Y301_S297R_YF]
Measurement Target: Fer kinase domain
Screen: -0.6585
//
Primary Sequence: PANMVYSTVEI [SLAMF7_Y304_T302M]
Measurement Target: Fer kinase domain
Screen: -0.2345
//
Primary Sequence: AKAFIYASHIV [ZNF573_Y229_G224A]
Measurement Target: Fer kinase domain
Screen: 0.4356
//
Primary Sequence: VARAVYQAVLS [SMG1_Y549_H546R]
Measurement Target: Fer kinase domain
Screen: -2.673
//
Primary Sequence: KNNSIYVLANI [VNN1_Y134_V136L]
Measurement Target: Fer kinase domain
Screen: 1.88
//
Primary Sequence: PVGVLYEVKVF [PTS_Y128_K129E_YF]
Measurement Target: Fer kinase domain
Screen: 1.639
//
Primary Sequence: TQPSPYAVFLF [RPGRIP1_Y823_R827L_YF]
Measurement Target: Fer kinase domain
Screen: -0.3535
//
Primary Sequence: VFLGAYDHFLP [SLC22A5_Y486_R488H_YF]
Measurement Target: Fer kinase domain
Screen: 2.03
//
Primary Sequence: SVVVLYEPPEV [TP53_Y220_P219L]
Measurement Target: Fer kinase domain
Screen: 3.283
//
Primary Sequence: SQINLYQDVML [ZNF806_Y33_A28S]
Measurement Target: Fer kinase domain
Screen: -0.1473
//
Primary Sequence: VQVAFYTVMMN [SPATA17_Y84_M86V_YF]
Measurement Target: Fer kinase domain
Screen: -1.379
//
Primary Sequence: QDRTFYERVRT [SPEN_Y633_S635R_YF]
Measurement Target: Fer kinase domain
Screen: -1.346
//
Primary Sequence: NREGVYTVSAP [TGFBI_Y537_F540S]
Measurement Target: Fer kinase domain
Screen: -3.034

* * *

# Measurement Target: c-Src kinase domain (Homo sapiens, UniProt P12931)
# Experimental Details: pTyr-Var library bacterial peptide display kinase screen (enrichment scores);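 further: log2 fold change in enrichment of variant over reference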
# Format: biochemical
# Applied Conditions: sheet "Src"; effect of the variant peptide relative to its reference peptide in the pTyr-Var library screen
Under this convention, criterion met denotes Screen strictly below -0.5 and criterion not met denotes Screen at or above -0.5.

Primary Sequence: ICGVSYDEFRF [CFTR_Y512_F508C_YF]
Assigned Category: criterion met
//
Primary Sequence: ITNVLYHVVGW [GBA_Y412_L410V]
Assigned Category: criterion met
//
Primary Sequence: ACLSLYGGFVE [MVD_Y164_R161L]
Assigned Category: criterion met
//
Primary Sequence: KSRQIYDAFIM [GRK3_Y109_R104K_YF]
Assigned Category: criterion not met
//
Primary Sequence: PAIFTYDEFKK [COL8A2_Y648_T645I_YF]
Assigned Category: criterion not met
//
Primary Sequence: VFGVSYDEFRF [CFTR_Y512_I507V_YF]
Assigned Category: criterion not met
//
Primary Sequence: VVKTVYSLQPS [KNSTRN_Y87_P92S]
Assigned Category: criterion not met
//
Primary Sequence: SSFDTYHLSRE [KIR3DL2_Y253_I252T_YF]
Assigned Category: criterion met
//
Primary Sequence: HNLDFYKETTN [FGFR3_Y648_K650E_YF]
Assigned Category: criterion met
//
Primary Sequence: FSMGCYEFSLG [HMGCL_Y198_I200F_YF]
Assigned Category: criterion not met
//
Primary Sequence: RIGRKYKRVRF [F8_Y442_K444R]
Assigned Category: criterion not met
//
Primary Sequence: AMGPVYQAAAL [HYOU1_Y421_A419P]
Assigned Category: criterion not met
//
Primary Sequence: CTHDLYMFMRE [FGFR3_Y724_I726F]
Assigned Category: criterion not met
